Would you kindly list glycan array binding signal (z-score) for each of these binders?
- Study Target: Fuc(a1-2)Gal(b1-3)GalNAc(b1-4)[Neu5Ac(a2-3)]Gal(b1-4)Glc
- Assay: glycan array binding signal (z-score within array); higher = stronger binding
- Test Context: glycan notation: IUPAC condensed, linker removed
The entries come from a sample that favours the strongest signals as a whole.
// no unit string in output, number only

Challenge: What value of measured glycan array binding signal (z-score) is listed for Flo1 (Saccharomyces cerevisiae), P32768 (protein) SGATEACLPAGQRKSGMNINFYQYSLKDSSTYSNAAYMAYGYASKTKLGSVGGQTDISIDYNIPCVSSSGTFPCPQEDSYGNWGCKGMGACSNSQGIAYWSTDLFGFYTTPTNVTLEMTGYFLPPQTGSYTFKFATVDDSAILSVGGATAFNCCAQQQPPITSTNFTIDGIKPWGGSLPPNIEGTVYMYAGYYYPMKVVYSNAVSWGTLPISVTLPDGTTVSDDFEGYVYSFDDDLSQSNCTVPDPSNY ?
Response given: -0.19

Challenge: What value of measured glycan array binding signal (z-score) is listed for Pbx2CASH domain (Cryptococcus neoformans) (protein) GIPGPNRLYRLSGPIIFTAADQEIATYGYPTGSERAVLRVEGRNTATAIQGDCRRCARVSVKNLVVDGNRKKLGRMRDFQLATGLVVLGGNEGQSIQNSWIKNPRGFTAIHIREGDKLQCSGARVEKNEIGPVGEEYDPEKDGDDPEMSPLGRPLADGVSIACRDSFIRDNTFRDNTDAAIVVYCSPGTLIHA ?
Response given: -0.327

Challenge: What value of measured glycan array binding signal (z-score) is listed for SfaEH (Escherichia coli), Q1RDG5 (protein) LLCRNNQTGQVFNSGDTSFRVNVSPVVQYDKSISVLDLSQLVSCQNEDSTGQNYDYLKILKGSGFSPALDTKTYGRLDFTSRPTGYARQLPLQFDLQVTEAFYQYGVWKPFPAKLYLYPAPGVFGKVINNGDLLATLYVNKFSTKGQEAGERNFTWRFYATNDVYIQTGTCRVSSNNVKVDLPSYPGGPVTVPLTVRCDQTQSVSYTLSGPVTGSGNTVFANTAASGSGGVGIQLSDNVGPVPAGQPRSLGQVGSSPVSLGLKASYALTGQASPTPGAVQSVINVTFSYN ?
Response given: -0.413
